Give melting point for every item shown.
Answer in °C, number only, no unit symbol.

# query: melting point of entry CS(=O)(=O)c1cc(Br)ccc1C(=O)O
220

# query: melting point of entry CCOC(=O)C=Cc1cc(OC)c(OC)c(OC)c1
63.4

# query: melting point of entry CC(=O)NC(=Cc1ccc(F)cc1)C(=O)OCCC(F)=C(F)F
116

# query: melting point of entry COc1cc(C)cc(-c2nn(CC#N)cc2-c2cc(NC[C@H](C)O)nc(-c3cccnc3)n2)c1
200

====

Give melting point for every item shown.

# query: melting point of entry O=C(O)c1cnn2c(C(F)(F)F)cc(-c3ccc(OC(F)(F)F)cc3)nc12
225 °C

# query: melting point of entry O=C1CC(Cl)=C(Cl)c2nc3cc(Cl)ccc3c(NCc3ccccc3)c21
141 to 143 °C

# query: melting point of entry COc1ccc(CNc2nc(SC)ncc2C(O)c2nccn2C)cc1Cl (stereo not given)
179 to 180 °C

# query: melting point of entry Cc1c(C)c2c(c(C)c1NC(=O)CC(C)(C)C)C(c1ccc(C3CCCCC3)cc1)CO2 (stereo not given)
146 to 148 °C

# query: melting point of entry COc1cc(CN2CCN(c3ccc(C(=O)NC4CC4)cc3Cl)CC2)cc2c1OC(C)C(=O)N2 (stereo not given)
226 °C

====

Give melting point for every item shown.

# query: melting point of entry O=C1CC(c2cccc(-n3ccnc3)c2)=Nc2cc(OCCO)c(C#Cc3ccccc3)cc2N1
224 to 227 °C

# query: melting point of entry CC(C)NCCCOc1ccc(O)cc1
92 to 100 °C

# query: melting point of entry C1=C(c2cccc(CNCCOc3cccc4ccoc34)c2)CCC1
126 °C

# query: melting point of entry COCCNC(=O)c1cccc(-c2cccc3cc(Cc4ccc5c(c4)CCO5)sc23)c1
79 to 80 °C

# query: melting point of entry CCOc1ccccc1O[C@@H]1CN(CC)C[C@H]1O (relative stereo)
73 to 75 °C

# query: melting point of entry O=C(OCCN1CCCCC1)c1c[nH]c2ccccc12
123 to 125 °C

# query: melting point of entry CN1CCN=C1CC(c1ccccc1)c1ccccc1
108 to 110 °C

# query: melting point of entry CC(Oc1cc2c(c(Cl)c1Cl)C(=O)C(C)(C1CCCC1)C2)C(=O)O (stereo not given)
140 to 142 °C

# query: melting point of entry COc1ccc(-c2ccc(O)c(C34CC5CC(CC(C5)C3)C4)c2)cc1C=C1SC(N2CCOCC2)=NC1=O
355 to 360 °C

# query: melting point of entry CCOC(=O)CNc1c([N+](=O)[O-])cc([N+](=O)[O-])c2ccccc12
> 305 °C

====

Give melting point for every item shown.

# query: melting point of entry CC(NC(N)=C[N+](=O)[O-])C1=CCC=CC1 (stereo unspecified)
120 to 125 °C

# query: melting point of entry COC(=O)Cc1cc(C)c(C(=O)c2ccc(Cl)cc2)n1C
122 to 125 °C

# query: melting point of entry C=C1CC2C(=CCC3(C)C2CC(C)C3(O)C(C)=O)C2(C)CCC(=O)C=C12 (stereo unspecified)
157 to 158 °C

# query: melting point of entry CCCOc1ccc(C(N)=O)cc1-c1ccc(C#N)c(=O)[nH]1
246 to 247 °C

# query: melting point of entry CNC(=S)NS(=O)(=O)c1cc(CCNC(=O)/C=C/c2cccs2)ccc1OCCOC(F)(F)F
161 to 163 °C

# query: melting point of entry COc1ccc(C2=NN(c3ccc(OCCCCBr)cc3)C(=O)[C@@H]3CC=CC[C@H]23)cc1OC
38 to 43 °C

# query: melting point of entry CCc1ccc(NCc2cc(OC)c(OC)c(OC)c2)cc1
64 to 66 °C

# query: melting point of entry CCOC(=O)C(Cc1ccc(O)cc1)C(=O)OCC
45 °C

# query: melting point of entry Cc1ccc2nc(-c3ccc(C=O)cc3)cn2c1
210 to 211 °C

# query: melting point of entry c1ccc(OC(Oc2cccc3ccccc23)Oc2cccc3ccccc23)cc1
88.5 to 90 °C

# query: melting point of entry CN1C(=O)c2cccnc2N(CCO)c2ccccc21
133 to 134 °C

# query: melting point of entry O=C(O)c1[nH]c(=O)c2ccccc2c1-c1ccccc1
> 300 °C

# query: melting point of entry COc1ccc(OC)c2c(Nc3ccc(C)c(O)c3)c(C#N)cnc12
240 to 242 °C

# query: melting point of entry CC(=O)NC[C@H]1CN(c2ccc(N3CCN(C(=O)CO)CC3)c(F)c2)C(=O)O1
87 to 90 °C

# query: melting point of entry NS(=O)(=O)c1ccc(-c2ccccc2-c2ccc(F)c(Cl)c2)cc1
192 to 193 °C

# query: melting point of entry O=C(Cn1c(-c2ccc(Cl)cc2)nc2cccnc21)Nc1ccccc1Cl
232 to 236 °C

# query: melting point of entry Nc1cc(-c2noc(-c3cnn4c(C(F)(F)F)cc(-c5ccc(Cl)c(Cl)c5)nc34)n2)ccn1
262 °C

# query: melting point of entry CS(=O)(=O)N1CCN(c2ccc(OC[C@H]3CCn4cc([N+](=O)[O-])nc4O3)cc2)CC1
149 to 151 °C

# query: melting point of entry N#Cc1cnc2sc(Cl)cc2c1Nc1ccc2[nH]ccc2c1
228 °C

# query: melting point of entry CCOC(=O)C(CBr)=C1C(=N)CCCC1=O
170 to 175 °C

# query: melting point of entry O=c1c2c(N3CCNCC3)cc(Cl)cc2n(Cc2ccccc2)c(=O)n1CCCc1ccccc1
62 to 68 °C

====

Give melting point for every item shown.

# query: melting point of entry COC(=O)c1cc(N2CCCC2)c(Oc2ccccc2)c(S(=O)(=O)Cl)c1
108 to 112 °C

# query: melting point of entry C=C(CCCCCCCCCCCCCCCC)CC(CO)COCCCCCCCCCCCCCCCC (centres undefined)
37 to 38 °C

# query: melting point of entry CCc1nn2ccccc2c1N(CCF)C(=O)COC
66.9 to 70.6 °C

# query: melting point of entry CC(C)(C)OC(=O)NC1C(=O)N(C(O)C(=O)OC(c2ccccc2)c2ccccc2)C1CBr (centres undefined)
133 to 137 °C

# query: melting point of entry CCCCNC(=S)Nc1onc2c1CCC2
93 °C

# query: melting point of entry Cc1ccc(C2=NC(O)(C(F)(F)F)CN2c2ccc(S(C)(=O)=O)cc2)cc1Cl (centres undefined)
201 °C

# query: melting point of entry CC(C)(C)c1cc(CCc2ccccc2NC(=O)NC2CCN(Cc3cc(F)cc(F)c3)CC2)cc(C(C)(C)C)c1O
119 to 120 °C

# query: melting point of entry CCOC(=O)c1cccc(C=Cc2ccccc2)c1
82 °C

# query: melting point of entry CCCNC(=O)NCc1cccc2c1CN(C1CCC(=O)NC1=O)C2=O (centres undefined)
298 to 300 °C

# query: melting point of entry C=CCNc1cc(C)nc2c(-c3ccccc3)n[nH]c12
92 to 105 °C

# query: melting point of entry Cc1cc(C(C)(C)C(=O)O)ccc1O
145 to 146 °C

# query: melting point of entry O=C(Nc1ccc(Cl)cc1)C(F)(F)C(O)(Cn1cncn1)c1ccc(F)cc1F (centres undefined)
86 to 87 °C

# query: melting point of entry CC(Br)CCCCN1C(=O)c2ccccc2C1=O (centres undefined)
48 to 51 °C

# query: melting point of entry COc1ccc(N2CCN(c3c(C)c(C)c4c(c3C)CC3(CCOCC3)O4)CC2)cc1
153 to 155 °C

# query: melting point of entry CCOC(=O)c1cc(-c2csc(-c3ccnc(N)c3)n2)c(=O)[nH]c1C
> 260 °C

# query: melting point of entry COc1ccccc1C(=O)NCC(=O)N1c2ccccc2N(Cc2ccccc2)C(=O)C2CCCC21 (centres undefined)
187 to 188 °C

# query: melting point of entry CCOC(=O)c1nn(-c2ccc(N=[N+]=[N-])cc2)c(=O)c2c(N)scc12
169 to 170 °C

# query: melting point of entry CCOC(=O)c1sc2cc(OCc3ccccc3)ccc2c1S(=O)c1ccccc1 (centres undefined)
141 to 142 °C

# query: melting point of entry CCOc1ncccc1OCC1(c2onc(-c3ccc(O)cc3)c2-c2ccccc2)CC1
190 to 192 °C

# query: melting point of entry CCOC(=O)c1ccc(NC(=O)CC(C(=O)Nc2ccc(NC(=O)Nc3ccccc3C)cc2)c2ccccc2)cc1 (centres undefined)
> 220 °C

# query: melting point of entry COc1cc(N2CCC(N3CCCN(CCO)CC3)CC2)ccc1Nc1ncc2ccc(-c3ccccc3N(C)S(C)(=O)=O)n2n1
91 to 104 °C

# query: melting point of entry CSc1ncnn1C[C@]1(c2ccc(F)c(F)c2)O[C@@H]1c1ccccc1Cl (relative stereo)
79 to 81 °C

# query: melting point of entry COC(=O)c1ccc(NC(=O)[C@H](Cc2ccc(-c3ccccc3)cc2)NCP(=O)(OC)OC)cc1
128 to 129 °C

# query: melting point of entry CC1(c2cccc(NS(C)(=O)=O)c2)C2CN(C(=O)CCc3cccs3)CC21 (centres undefined)
184 °C

# query: melting point of entry CCOC(=O)c1cccc(CNC(=O)CCCCCNC(=O)OC(C)(C)C)c1O
120 to 121 °C

# query: melting point of entry C=CCc1cc(C=O)ccc1O
66 °C

# query: melting point of entry Cc1ccccc1C1CCN(C(=O)CCC(=O)c2ccc3c(c2)CCNCC3)CC1
93 to 95 °C

# query: melting point of entry COc1ccc2c(c1)c(SC(C)(C)C)c(CC(C)(C)C(=O)O)n2Cc1ccc(Cl)cc1
190 to 191 °C

# query: melting point of entry CCCCc1nc(SC)c(C(=O)O)n1Cc1ccc(-c2ccccc2S(=O)(=O)NC(=O)NCCC)cc1
109 to 111 °C

# query: melting point of entry C[C@]12CCC(=O)C=C1CCc1cc(Cl)ccc12
94 to 96 °C

# query: melting point of entry CC(c1cc(F)ccc1O)c1cc(Cl)cc(C(C)c2cc(F)ccc2O)c1O (centres undefined)
224 °C

# query: melting point of entry CCCc1c(OCCCOc2cc(NC(=O)c3nnn[nH]3)c(C)cc2Br)ccc(C(C)=O)c1O
63 to 65 °C

# query: melting point of entry Nc1cc(I)ccc1Nc1cccc(-n2cccn2)c1
134 to 135 °C

# query: melting point of entry CCn1c(=O)c(-c2ccsc2)cc2cnc(Nc3ccccc3)nc21
223 to 225 °C

# query: melting point of entry O=C(Nc1cccc(Cl)c1)c1c(C(F)(F)F)nc2c(C(F)(F)F)cccc2c1O
152 °C

# query: melting point of entry O=C(O)C(=O)N1CCC(Cc2ccccc2)CC1
109 to 112 °C

# query: melting point of entry COc1ccc(NC(=N)c2ccccn2)cc1
73 to 75 °C

# query: melting point of entry OCc1cnn(-c2ccc(OC(F)(F)F)cc2)c1
73 to 74 °C

# query: melting point of entry Cc1ccc(S(=O)(=O)Nc2ccccc(=O)c2O)cc1
177 to 179 °C
